# test.target: human somatostatin receptor subtype 2 (Homo sapiens, UniProt P30874)
# Construct: expressed in transfected cells
# Sequence (P30874 whole entry): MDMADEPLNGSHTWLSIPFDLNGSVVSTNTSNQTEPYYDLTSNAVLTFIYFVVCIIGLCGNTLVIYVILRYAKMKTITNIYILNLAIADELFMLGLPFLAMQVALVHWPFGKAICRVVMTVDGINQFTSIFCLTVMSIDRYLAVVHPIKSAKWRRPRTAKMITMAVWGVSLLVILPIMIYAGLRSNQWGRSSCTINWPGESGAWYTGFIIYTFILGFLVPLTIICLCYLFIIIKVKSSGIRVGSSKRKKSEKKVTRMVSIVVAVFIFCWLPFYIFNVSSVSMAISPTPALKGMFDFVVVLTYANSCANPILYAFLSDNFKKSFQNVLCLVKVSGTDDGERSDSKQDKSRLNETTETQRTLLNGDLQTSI
# assay.notes: Functional cAMP assay for SSTR2 agonists (HTRF) in CHO-K1 cells
# Assay type: cell-based
# measurement.conditions: CHO-K1 cells stably expressing human SST2, 20 min; read-out: hSST2 cAMP Avg EC50
pEC50: −log10 of the molar value.
parameter: pEC50

molecule	parameter	test.value
CC[C@H](C)[C@@H]([C@@H](CC(=O)N1CCC[C@H]1[C@H](OC)[C@@H](C)C(=O)N[C@H](C)[C@@H](O)c1ccccc1)OC)N(C)C(=O)[C@@H](NC(=O)[C@H](C(C)C)N(C)C(=O)OCc1ccc(NC(=O)[C@H](CCCNC(N)=O)NC(=O)[C@@H](NC(=O)CCCCC(=O)NCCNc2ncc(-c3cc(C)cc(F)c3)c(N3CCC(N)CC3)c2-c2nc3ccc(Cl)cc3[nH]2)C(C)C)c(O[C@@H]2O[C@H](C(=O)O)[C@@H](O)[C@H](O)[C@H]2O)c1)C(C)C [Compound 133]	pEC50	9.96
CC[C@H](C)[C@@H]([C@@H](CC(=O)N1CCC[C@H]1[C@H](OC)[C@@H](C)C(=O)N[C@H](C)[C@@H](O)c1ccccc1)OC)N(C)C(=O)[C@@H](NC(=O)[C@H](C(C)C)N(C)C(=O)OCc1ccc(NC(=O)[C@H](CCCNC(N)=O)NC(=O)[C@@H](NC(=O)CCOCCOCCC(=O)NCCNc2ncc(-c3cc(C)cc(F)c3)c(N3CCC(N)CC3)c2-c2nc3ccc(Cl)cc3[nH]2)C(C)C)c(O[C@@H]2O[C@H](C(=O)O)[C@@H](O)[C@H](O)[C@H]2O)c1)C(C)C	pEC50	9.29
